test: Cytotoxic assay in cardiac fibroblasts (crystal violet, 96 h); format: cell-based; settings: human, human ventricular cardiac fibroblasts (NHCF-V), NHCF-V cell line, read-out: IC50 (cytotoxicity, CF viability)
Quantity Name: IC50 at 96 h (µM)
# unit: µM | format: bare number

Problem: Requested field: IC50 at 96 h. Item: `C=CC[C@@H]1/C=C(\C)C[C@H](C)C[C@H](OC)[C@H]2O[C@@](O)(C(=O)C(=O)N3CCCC[C@H]3C(=O)O[C@H](/C(C)=C/[C@@H]3CC[C@@H](O)[C@H](OC)C3)[C@H](C)[C@@H](O)CC1=O)[C@H](C)C[C@@H]2OC`
Solution: 12.6

Problem: Look up IC50 at 96 h for this molecule: `Oc1ccc(-c2nc(-c3ccncc3)c(-c3ccc(F)cc3)[nH]2)cc1`
Solution: 13.9

Problem: Requested field: IC50 at 96 h. Item: `CO[C@H]1C[C@@H]2CC[C@@H](C)[C@@](O)(O2)C(=O)C(=O)N2CCCC[C@H]2C(=O)O[C@H]([C@H](C)C[C@@H]2CC[C@@H](O)[C@H](OC)C2)CC(=O)[C@H](C)/C=C(\C)[C@@H](O)[C@@H](OC)C(=O)[C@H](C)C[C@H](C)/C=C/C=C/C=C/1C`
Solution: 3.54
